experiment: Stability in rat plasma; type: in vitro ADME; details: rat, plasma, 24 h
Exercise: state measured Stability in rat plasma (% remaining) 24 h for each of the compounds provided.
Numbers only, in % remaining.

Previously resolved entries follow.
* C[C@]12CC[C@H](OC(=O)CCCC(=O)O)CC1=CCC1C2CC[C@]2(C)/C(=N/O)CCC12 (stereo partly shown) [Compound 14] | 56.3
* CCO/N=C1\CCC2C3CC=C4C[C@@H](OC(=O)CCCC(=O)O)CC[C@]4(C)C3CC[C@]12C (stereo partly shown) [Compound 15] | 69.9
* CC(=O)[C@H]1CC[C@H]2[C@@H]3CC=C4C[C@@H](OC(=O)CCCCC(=O)O)CC[C@]4(C)[C@H]3CC[C@]12C [20-Oxo-PE-hAdi, 20-Oxo-pregn-5-en-3β-yl hemiadipate, reference compound] | 2

Now turn to the next compound.
Would you kindly share the measured Stability in rat plasma (% remaining) 24 h for C/C(=N\O)[C@H]1CCC2C3CC=C4C[C@@H](OC(=O)CCCC(=O)O)CC[C@]4(C)C3CC[C@@]21C (stereo partly shown) [Compound 11] ?
58.1

====

Assay: Stability in rat plasma
Format: in vitro ADME
Conditions: rat, plasma, 8 h
Description: Compounds were prepared as 1.6 mg mL^−1 stock solutions in methanol. Then, 20 µL of stock solution was added to 1000 µL of rat plasma (BioIVT, Cat. No. RAT00PLLH-0102307), maintained at 37 °C. Aliquots (50 µL) withdrawn at 0, 8, and 24 h were analyzed by HPLC. An aliquot of plasma was extracted with methanol (450 µL) containing an internal standard, and the solution was vortexed (20 s) and centrifuged at 13 500 rpm for 10 min. […] The samples were analyzed using an Agilent 6230 TOF LC/MS. […]
Exercise: state measured Stability in rat plasma (% remaining) 8 h for each of the compounds provided.
Give bare numbers, in % remaining.

Previously resolved entries follow.
• CC(=O)[C@H]1CC[C@H]2[C@@H]3CC=C4C[C@@H](OC(=O)CCCCC(=O)O)CC[C@]4(C)[C@H]3CC[C@]12C [20-Oxo-PE-hAdi, 20-Oxo-pregn-5-en-3β-yl hemiadipate, reference compound] = 11
• C/C(=N\O)[C@H]1CCC2C3CC=C4C[C@@H](OC(=O)CCCC(=O)O)CC[C@]4(C)C3CC[C@@]21C (stereo partly shown) = 69.9
• CCO/N=C1\CCC2C3CC=C4C[C@@H](OC(=O)CCCC(=O)O)CC[C@]4(C)C3CC[C@]12C (stereo partly shown) = 82.1

Would you kindly share the measured Stability in rat plasma (% remaining) 8 h for C[C@]12CC[C@H](OC(=O)CCCC(=O)O)CC1=CCC1C2CC[C@]2(C)/C(=N/O)CCC12 (stereo partly shown) ?
61.1

====

Exercise: state measured Papp at 5 h, 100 µM for each of the compounds provided.
assay: in vitro; settings: PAMPA, pH 7.4
Numbers only, in ×10⁻⁶ cm/s.

Previously resolved entries follow.
• C[C@]12CC[C@H](OC(=O)CCCC(=O)O)CC1=CCC1C2CC[C@]2(C)/C(=N/O)CCC12 (stereo partly shown) [Compound 14] = 26.3
• C=CCO/N=C(\C)[C@H]1CCC2C3CC=C4C[C@@H](OC(=O)CCCC(=O)O)CC[C@]4(C)C3CC[C@@]21C (stereo partly shown) [Compound 20] = 7.24
• CCON=C(C)C1CCC2C3CC=C4CC(OC(=O)CCCC(=O)O)CCC4(C)C3CCC12C (stereo not shown) [Compound 12] = 3.89
• C/C(=N\O)[C@H]1CCC2C3CC=C4C[C@@H](OC(=O)CCCC(=O)O)CC[C@]4(C)C3CC[C@@]21C (stereo partly shown) [Compound 11] = 155
• CO/N=C(\C)[C@H]1CCC2C3CC=C4C[C@@H](OC(=O)CCCC(=O)O)CC[C@]4(C)C3CC[C@@]21C (stereo partly shown) [Compound 17] = 5.5
• C/C(=N\OCc1ccccc1)[C@H]1CCC2C3CC=C4C[C@@H](OC(=O)CCCC(=O)O)CC[C@]4(C)C3CC[C@@]21C (stereo partly shown) [Compound 21] = 1.82

Would you kindly share the measured Papp at 5 h, 100 µM for CCO/N=C(\C)[C@H]1CCC2C3CC=C4C[C@@H](OC(=O)CCC(=O)O)CC[C@]4(C)C3CC[C@@]21C (stereo partly shown) [Compound 22] ?
1.58
